B1: NELF-E aptamer (parent)
chain: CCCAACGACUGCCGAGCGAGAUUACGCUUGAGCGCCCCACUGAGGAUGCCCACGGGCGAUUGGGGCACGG

Variants of: B1
Test: HiTS-RAP
Conditions: with NELF-E (Drosophila)
resultType: log10 Kd (log10 of the value in nM)
# values: log10(Kd), units nM

// worked examples, log10 Kd included
CCCGACGACUGCCGAGCGAGAUUACGCUUGAGCGCCCCACUGAGGAUGCCCACGGGCGAUUGCGGCACGG : 1.46
CCCAACGACUUCCGAGCGAGAUUACGCUUGGGCGCCCCACUGAGGAUGCCCACGGGCGAUUGGGGCACGG : 0.87
CCCGACGACUGCCGAGCGAGAUUACGCUUGAGCGCCCCACUGAGGAAGCCCACGGGCGAUUGGGGCACGG : 1.09

Exam item: Given CCCAGCGACUGCCGAGCGAGAUUACGCUUGAGCGCCCCACUGAGGAUGCCCACGGGCGAUCGGGGCACGG , respond with its log10 Kd.
Marked response: 1.81

Exam item: Give the value of log10 Kd reported for the following: CCCAACGGCUGCCGAGCGAGAUUACGCUUGAGCGCCCCACUGAGGAUGCCCACGGGCGGUUGGGGCACGG
Marked response: 1.95

Exam item: Determine its reported log10 Kd: CCCAACGACUGCCUAGCGAGAUUACGCUUGAGCGCCCCACUGAGGAUGCCCACGGGCGAUAGGGGCACGG
Marked response: 1.56

Exam item: // fetch log10 Kd given entry CCCAAGGACUGCCGAGCGAGAUUACGCUUGAGCGCCCCACUGAGGAUGCCCACGGGCGAUUGGGGCACGG
Marked response: 0.68

Exam item: Tell me log10 Kd reported for CCCGACGACUGCCGAGCGAGAUUACGCUUGAGCGCCCCACUGAGGAUGCCCACGGGCGUUUGGGGCACGG
Marked response: 2.05

Exam item: Write down log10 Kd measured for item CCCAACGACUGCCGUGCGAGAUUACGCUUGAGCGCCCCACUGAGGAUGCCCACGGGUGAUUGGGGCACGG
Marked response: 1.16

Exam item: Recall and state the measured log10 Kd for CCCAGCGACUGCCGAGCGGGAUUACGCUUGAGCGCCCCACUGAGGAUGCCCACGGGCGAUUGGGGCACGG .
Marked response: 0.77

Exam item: Name the recorded log10 Kd of the variant listed here: CCCAACGACUGCCGAGCGAGAGUACGCUUGAGCGCCCCACUGAGGUUGCCCACGGGCGAUUGGGGCACGG
Marked response: 1.52

Exam item: Using the record for CCCAACGACGGCCGAGCGAGAUUACGCUUGAGCGCCCCACUGAGGAUGCCCUCGGGCGAUUGGGGCACGG , state its measured log10 Kd.
Marked response: 1.17
